# measurement.target: human OX2R (Homo sapiens (Human), UniProt O43614)
# Sequence (O43614 whole entry): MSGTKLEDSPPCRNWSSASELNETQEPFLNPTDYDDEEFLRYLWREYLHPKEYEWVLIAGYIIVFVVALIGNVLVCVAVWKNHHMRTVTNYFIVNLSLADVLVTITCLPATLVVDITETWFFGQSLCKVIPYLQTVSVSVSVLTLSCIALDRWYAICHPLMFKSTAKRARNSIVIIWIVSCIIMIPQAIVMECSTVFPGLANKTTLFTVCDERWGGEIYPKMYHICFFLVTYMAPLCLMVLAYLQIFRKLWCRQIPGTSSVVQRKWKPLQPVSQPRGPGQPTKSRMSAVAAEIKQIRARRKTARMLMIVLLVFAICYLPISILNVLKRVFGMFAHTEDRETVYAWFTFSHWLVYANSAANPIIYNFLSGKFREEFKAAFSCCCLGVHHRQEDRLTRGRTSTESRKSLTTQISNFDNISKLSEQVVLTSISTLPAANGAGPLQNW
# procedure.text: IPOne (IP-One, Cisbio) orexin receptor agonist assay in CHO cells expressing human OX2R
# conditions: CHO, hOX2R_IP; percentage of mean max effect of a reference compound at 1 uM (100% activity vs Orexin A)
observed.property: Emax (%)

COC(=O)N1[C@H](C)C[C@H](NS(=O)(=O)N(C)C)[C@@H]1CO[C@H]1CC[C@@H](c2cc(F)ccc2F)CC1 [Example 21] ... 101
COC(=O)N1[C@H](C)C[C@H](NS(=O)(=O)N(C)C)[C@@H]1CO[C@H]1CCC(c2cccc(F)c2)C(O)C1 (stereo partly drawn) [Example 36] ... 99
COC(=O)N1[C@H](C)C[C@H](NS(C)(=O)=O)[C@@H]1COC1CCC(C(C)C)CC1 (stereo partly drawn) [Example 3] ... 98
CCC1(CC)C[C@@H](NS(C)(=O)=O)[C@@H](CO[C@H]2CC[C@@H](c3ccccc3)CC2)N1C(=O)OC (relative stereo) [Example 42] ... 100
COCCS(=O)(=O)N[C@H]1C[C@@H](C)N(C(=O)OC)[C@H]1COC1CCC(c2cccc(F)c2)CC1 (stereo partly drawn) [Example 61] ... 105
COC(=O)N1[C@H](C)C[C@H](NS(C)(=O)=O)[C@@H]1COC1CCC(CC(F)(F)F)CC1 (stereo partly drawn) [Example 12] ... 99
COC(=O)N1[C@H](CC#N)C[C@H](NS(=O)(=O)N(C)C)[C@@H]1CO[C@H]1CC[C@@H](c2cccc(F)c2)CC1 [Example 52] ... 102
CC(C)OC(=O)N1[C@H](C)C[C@H](NS(C)(=O)=O)[C@@H]1COC1CCC(C(C)C)CC1 (stereo partly drawn) [Example 5] ... 101
CCOC(=O)N1[C@H](C)C[C@H](NS(C)(=O)=O)[C@@H]1COC1CCC(C(C)C)CC1 (stereo partly drawn) [Example 7] ... 100

----------
# measurement.target: human OX2R (Homo sapiens (Human), UniProt O43614)
# procedure.text: IPOne (IP-One, Cisbio) orexin receptor agonist assay in CHO cells expressing human OX2R
# conditions: CHO, hOX2R_IP; percentage of mean max effect of a reference compound at 1 uM (100% activity vs Orexin A)
observed.property: Emax (%)

CCNC(=O)N1[C@H](C)C[C@H](NS(C)(=O)=O)[C@@H]1COC1CCC(C(C)C)CC1 (some centres unmarked) ... 101
COC(=O)N1[C@H](C)C[C@H](NS(=O)(=O)N(C)C)[C@@H]1CO[C@H]1CC[C@@H](c2cc(F)cc(F)c2)CC1 ... 101
COC(=O)N1[C@H](C)C[C@H](NS(=O)(=O)N(C)C)[C@@H]1CO[C@H]1CC[C@@H](c2ccccc2F)CC1 ... 97
COC(=O)N1[C@H](C)C[C@H](NS(C)(=O)=O)[C@@H]1COC1CCC(c2ccccc2)CC1C (some centres unmarked) ... 99
COC(=O)N1[C@H](C)C[C@H](NS(=O)(=O)CF)[C@@H]1CO[C@H]1CC[C@@H](c2ccccc2)CC1 ... 102
COC(=O)N1[C@H](C)C[C@H](NS(C)(=O)=O)[C@@H]1COC1CCC(c2ccccc2)CC1OC (some centres unmarked) ... 92
CCc1ccccc1[C@H]1CC[C@H](OC[C@H]2[C@@H](NS(=O)(=O)N(C)C)C[C@@H](C)N2C(=O)OC)CC1 ... 100
COC(=O)N1[C@H](C)C[C@H](NS(C)(=O)=O)[C@@H]1CO[C@H]1CC[C@@H](c2ccccc2C(F)(F)F)CC1 ... 100
COC(=O)N1[C@@H](CO[C@H]2CC[C@@H](c3ccccc3)CC2)[C@@H](NS(C)(=O)=O)CC12CC2 (relative stereo) ... 99
COC(=O)N1[C@H](C)C[C@H](NS(C)(=O)=O)[C@@H]1CO[C@H]1CC[C@@H](c2cc(F)ccc2F)CC1 ... 102
CC(C)C1CCC(OC[C@H]2[C@@H](NS(=O)(=O)N(C)C)C[C@@H](C)N2C(=O)OCC(F)F)CC1 (some centres unmarked) ... 100
CC[C@@H]1C[C@H](NS(C)(=O)=O)[C@H](CO[C@H]2CC[C@@H](c3ccccc3)CC2)N1C(=O)OC [Example 46] ... 101
COC(=O)N1[C@H](C)C[C@H](NS(C)(=O)=O)[C@@H]1CO[C@H]1CC[C@@H](c2ccc(F)c(F)c2)CC1 ... 101
COC(=O)N1[C@H](C)C[C@H](NS(=O)(=O)CF)[C@@H]1CO[C@H]1CC[C@@H](c2cccc(F)c2)CC1 ... 98
